assay: Single oral dose pharmacokinetic study of EG in healthy Egyptian volunteers (LC-MS/MS of plasma); type: in vivo, human; settings: male, human, plasma, n=6, single oral dose, one JARDIANCE tablet 25 mg EG, read-out: t 1/2, Mean ± S.D. (% C.V.) (converted)
PROPERTY: half-life (h)
Numbers only here, please. The scale is h.

Would you mind telling me what half-life value was observed for OC[C@H]1O[C@@H](c2ccc(Cl)c(Cc3ccc(O[C@H]4CCOC4)cc3)c2)[C@H](O)[C@@H](O)[C@@H]1O ?
6.1

* * *

assay: Single oral dose pharmacokinetic study of EG in healthy Egyptian volunteers (LC-MS/MS of plasma); format: in vivo, human; conditions: male, human, plasma, n=6, single oral dose, one JARDIANCE tablet 25 mg EG, read-out: Elimination rate constant, Mean ± S.D. (% C.V.) (converted)
PROPERTY: k el (s⁻¹)
Field: numeric (s⁻¹). Do not append units.

Please give the measured k el for this molecule: OC[C@H]1O[C@@H](c2ccc(Cl)c(Cc3ccc(O[C@H]4CCOC4)cc3)c2)[C@H](O)[C@@H](O)[C@@H]1O
2.78e-05
